Here's what we have: MIC numbers for M. tuberculosis H37Rv.

These solved cases illustrate the format of a correct answer.
INSERT INTO results (input_smiles, assay_target, measured_endpoint, assay_result) VALUES
  ('COc1nc2ccc(Br)cc2cc1[C@@H](c1ccccc1)[C@@](O)(CCN(C)C)c1cccc2ccccc12', 'M. tuberculosis H37Rv', 'MIC', '0.012 µg/mL'),
  ('CO[C@H]1/C=C/O[C@@]2(C)Oc3c(C)c(O)c4c(O)c(c(/C=N/N5CCN(C)CC5)c(O)c4c3C2=O)NC(=O)/C(C)=C\C=C\[C@H](C)[C@H](O)[C@@H](C)[C@@H](O)[C@@H](C)[C@H](OC(C)=O)[C@@H]1C', 'M. tuberculosis H37Rv', 'MIC', '0.014 µg/mL');

Inquiry: Provide the reported MIC (system: M. tuberculosis H37Rv) for `COc1ncc(-c2ccc(Cl)cc2)cc1[C@@H](c1ccccc1)[C@@](O)(CCN(C)C)c1cccc2ccccc12`
Reply text: 0.07 µg/mL

Inquiry: Provide the reported MIC (system: M. tuberculosis H37Rv) for `COc1c(N2C[C@@H]3CCCN[C@@H]3C2)c(F)cc2c(=O)c(C(=O)O)cn(C3CC3)c12`
Reply text: 0.045 µg/mL

Inquiry: Provide the reported MIC (system: M. tuberculosis H37Rv) for `NNC(=O)c1ccncc1`
Reply text: 0.031 µg/mL
